- systemUnderTest: HIV-1 JR-CSF Env N392Q (HIV-1 (isolate JR-CSF)) (UniProt P20871)
- experimentNotes: cell-based or functional assay

binder	Fold IC50 increase relative to wild-type, fold
PGT-128 (antibody, V domains shown) VH: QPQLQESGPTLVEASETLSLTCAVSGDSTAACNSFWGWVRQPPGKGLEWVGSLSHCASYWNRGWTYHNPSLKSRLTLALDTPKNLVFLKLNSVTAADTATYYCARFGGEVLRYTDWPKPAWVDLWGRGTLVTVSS VL: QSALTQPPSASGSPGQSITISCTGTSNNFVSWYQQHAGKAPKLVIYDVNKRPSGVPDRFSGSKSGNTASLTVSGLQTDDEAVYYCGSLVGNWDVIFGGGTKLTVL	0.9
PGT-126 (antibody, V domains shown) VH: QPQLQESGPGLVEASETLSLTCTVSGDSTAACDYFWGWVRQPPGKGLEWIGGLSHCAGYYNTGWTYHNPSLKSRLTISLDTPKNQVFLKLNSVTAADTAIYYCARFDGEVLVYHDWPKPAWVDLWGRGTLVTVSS VL: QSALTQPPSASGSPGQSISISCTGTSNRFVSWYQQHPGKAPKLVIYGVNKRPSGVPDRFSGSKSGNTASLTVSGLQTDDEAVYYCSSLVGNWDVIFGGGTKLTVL	1.6
PGT-123 (antibody, V domains shown) VH: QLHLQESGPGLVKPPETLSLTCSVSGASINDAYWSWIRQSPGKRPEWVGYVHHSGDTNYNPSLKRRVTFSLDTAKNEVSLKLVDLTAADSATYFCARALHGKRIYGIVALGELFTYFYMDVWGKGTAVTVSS VL: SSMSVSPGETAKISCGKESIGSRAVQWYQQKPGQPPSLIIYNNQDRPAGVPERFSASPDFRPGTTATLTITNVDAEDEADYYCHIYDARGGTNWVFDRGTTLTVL	1
